The measured values listed here are drawn from patent US9155729B2.

Each entry below carries its recorded PPARγ binding signal (fluorescence polarization, Fluormone PPAR Green displacement).
- tested_system: PPARγ (Homo sapiens, UniProt P37231)
- Construct: purchased Invitrogen Corporation, Carlsbad, Calif
- experiment_notes: Commercial PPARγ binding assay (Invitrogen, PPAR-LBD/Fluormone PPAR Green complex)
- run_conditions: 50 μM compound; mean of three experiments
recorded_endpoint: PPARγ binding signal (fluorescence polarization, Fluormone PPAR Green displacement)

molecule="CCc1ccc(C(O)COc2ccc(CC3(C)SC(=O)NC3=O)cc2)nc1 (stereo not drawn)" result=132
molecule="CCc1ccc(C(=CCO)COc2ccc(CC3SC(=O)NC3=O)cc2)nc1 (stereo not drawn)" result=148
molecule="CCc1ccc([C@H](O)COc2ccc(CC3(C)SC(=O)NC3=O)cc2)nc1 (stereo partly drawn)" result=189
molecule="CCc1ccc([C@H](O)COc2ccc(CC3SC(=O)NC3=O)cc2)nc1 (stereo partly drawn)" result=88
molecule="CCc1ccc(CCOc2ccc(CC3(C)SC(=O)NC3=O)cc2)nc1 (single isomer, unassigned) [Compound 6]" result=126
molecule="CCc1ccc(C(=O)COc2ccc(CC3(C)SC(=O)NC3=O)cc2)nc1 (stereo not drawn)" result=126
molecule="CCc1ccc(C(=CC(=O)OC)COc2ccc(CC3SC(=O)NC3=O)cc2)nc1 (stereo not drawn)" result=128
molecule="CCc1ccc(C(=O)COc2ccc(CC3SC(=O)NC3=O)cc2)nc1 (stereo not drawn)" result=174
molecule="CCc1ccc(CCOc2ccc(CC3(C)SC(=O)NC3=O)cc2)nc1 (single isomer, unassigned) [Compound 7]" result=144

---

- tested_system: PPARγ (Homo sapiens, UniProt P37231)
- Construct: purchased Invitrogen Corporation, Carlsbad, Calif
- experiment_notes: Commercial PPARγ binding assay (Invitrogen, PPAR-LBD/Fluormone PPAR Green complex)
- run_conditions: .3 μM compound; mean of three experiments
compounds and their reported PPARγ binding signal (fluorescence polarization, Fluormone PPAR Green displacement)
recorded_endpoint: PPARγ binding signal (fluorescence polarization, Fluormone PPAR Green displacement)

compound="CCc1ccc([C@H](O)COc2ccc(CC3(C)SC(=O)NC3=O)cc2)nc1 (some centres unmarked)" result=237
compound="CCc1ccc(C(=CCO)COc2ccc(CC3SC(=O)NC3=O)cc2)nc1 (centres unmarked)" result=243
compound="CCc1ccc(CCOc2ccc(CC3(C)SC(=O)NC3=O)cc2)nc1 (single isomer, unassigned) [Compound 7]" result=246
compound="CCc1ccc(CCOc2ccc(CC3(C)SC(=O)NC3=O)cc2)nc1 (single isomer, unassigned) [Compound 4]" result=230
compound="CCc1ccc(C(=O)COc2ccc(CC3(C)SC(=O)NC3=O)cc2)nc1 (centres unmarked)" result=239
compound="CCc1ccc(C(=CC(=O)OC)COc2ccc(CC3SC(=O)NC3=O)cc2)nc1 (centres unmarked)" result=227
compound="CCc1ccc([C@@H](O)COc2ccc(CC3(C)SC(=O)NC3=O)cc2)nc1 (some centres unmarked)" result=243
compound="CCc1ccc(C(COc2ccc(CC3SC(=O)NC3=O)cc2)CC(=O)OC)nc1 (centres unmarked)" result=222

---

- tested_system: PPARγ (Homo sapiens)
- Construct: purchased Invitrogen Corporation, Carlsbad, Calif
- Sequence (P37231 238-503 limits assumed): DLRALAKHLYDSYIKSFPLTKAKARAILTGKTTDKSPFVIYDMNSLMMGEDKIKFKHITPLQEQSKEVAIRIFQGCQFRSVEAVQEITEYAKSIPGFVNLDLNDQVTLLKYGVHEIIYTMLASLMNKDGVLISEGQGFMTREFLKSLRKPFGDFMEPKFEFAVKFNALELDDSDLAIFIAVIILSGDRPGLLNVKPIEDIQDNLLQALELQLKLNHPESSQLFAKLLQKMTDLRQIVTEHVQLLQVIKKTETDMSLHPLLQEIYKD
- experiment_notes: Commercial PPARγ binding assay (Invitrogen, PPAR-LBD/Fluormone PPAR Green complex)
- run_conditions: 10 μM compound; mean of three experiments
Classify as follows. Reported PPARγ binding signal (fluorescence polarization, Fluormone PPAR Green displacement) greater than or equal to 200: 1. Reported PPARγ binding signal (fluorescence polarization, Fluormone PPAR Green displacement) below: -1.

compound="CCc1ccc([C@H](O)COc2ccc(CC3SC(=O)NC3=O)cc2)nc1 (some centres unmarked) [Compound 3]" qualitative_label=-1
compound="CCc1ccc(CCOc2ccc(CC3(C)SC(=O)NC3=O)cc2)nc1 (single isomer, unassigned) [Compound 7]" qualitative_label=1
compound="CCc1ccc([C@@H](O)COc2ccc(CC3(C)SC(=O)NC3=O)cc2)nc1 (some centres unmarked) [Compound 8]" qualitative_label=1
compound="CCc1ccc(C(O)COc2ccc(CC3(C)SC(=O)NC3=O)cc2)nc1 (centres unmarked) [Compound 5]" qualitative_label=1
compound="CCc1ccc([C@H](O)COc2ccc(CC3(C)SC(=O)NC3=O)cc2)nc1 (some centres unmarked) [Compound 9]" qualitative_label=1
compound="CCc1ccc(C(=CC(=O)OC)COc2ccc(CC3SC(=O)NC3=O)cc2)nc1 (centres unmarked) [Compound 11]" qualitative_label=-1
compound="CCc1ccc(C(COc2ccc(CC3SC(=O)NC3=O)cc2)CC(=O)OC)nc1 (centres unmarked) [Compound 12]" qualitative_label=-1
